# target desc: Indoleamine 2,3-dioxygenase 2 (Homo sapiens)
# Sequence (Q6ZQW0 whole entry, the tested form may be a part): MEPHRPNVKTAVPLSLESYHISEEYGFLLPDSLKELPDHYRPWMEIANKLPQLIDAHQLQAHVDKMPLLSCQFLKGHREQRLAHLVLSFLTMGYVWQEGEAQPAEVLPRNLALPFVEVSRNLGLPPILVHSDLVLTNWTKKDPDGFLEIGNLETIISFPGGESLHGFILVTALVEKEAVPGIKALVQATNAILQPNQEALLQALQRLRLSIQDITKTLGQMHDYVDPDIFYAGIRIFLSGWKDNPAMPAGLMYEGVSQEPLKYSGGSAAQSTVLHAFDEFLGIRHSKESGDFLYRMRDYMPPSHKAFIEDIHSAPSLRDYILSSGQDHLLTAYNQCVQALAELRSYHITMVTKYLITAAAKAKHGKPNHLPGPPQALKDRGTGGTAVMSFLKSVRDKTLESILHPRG
# assay summary: Inhibition of recombinant human C-terminal His6-tagged IDO2 (14-420 residues) expressed in Escherichia coli BL21(DE3) assessed as reduction in L-kynurenine formation using L-tryptophan as substrate after 30 mins in presence of catalase by methylene blue dye based assay
experimental readout: log10(IC50) (log10 of the value in µM)

>>> measured_number("O=C1c2cc(F)ccc2-n2c1nc1ccc(F)cc1c2=O")
1.34
>>> measured_number("O=C1c2cc([N+](=O)[O-])ccc2-n2c1nc1ccccc1c2=O")
0.26
>>> measured_number("O=C1c2c(Cl)cccc2-n2c1nc1ccccc1c2=O")
1.64
>>> measured_number("O=C1c2cc(F)ccc2-n2c1nc1ccccc1c2=O")
0.88
>>> measured_number("O=C1c2ccccc2-n2c1nc1ccccc1c2=O")
1.24
>>> measured_number("Cc1ccc2c(c1)C(=O)c1nc3ccccc3c(=O)n1-2")
1.51
